Entry source: patent US9920035B2

Target: epithelial sodium channel (ENaC) (Mus musculus, UniProt Q61180+Q9WU38+Q9WU39)
Construct: Mouse kidney M-1 cells were cultivated in DMEM containing 5% FCS and 5 μM dexamethasone; endogenous in cells
Sequence (Q61180 whole entry): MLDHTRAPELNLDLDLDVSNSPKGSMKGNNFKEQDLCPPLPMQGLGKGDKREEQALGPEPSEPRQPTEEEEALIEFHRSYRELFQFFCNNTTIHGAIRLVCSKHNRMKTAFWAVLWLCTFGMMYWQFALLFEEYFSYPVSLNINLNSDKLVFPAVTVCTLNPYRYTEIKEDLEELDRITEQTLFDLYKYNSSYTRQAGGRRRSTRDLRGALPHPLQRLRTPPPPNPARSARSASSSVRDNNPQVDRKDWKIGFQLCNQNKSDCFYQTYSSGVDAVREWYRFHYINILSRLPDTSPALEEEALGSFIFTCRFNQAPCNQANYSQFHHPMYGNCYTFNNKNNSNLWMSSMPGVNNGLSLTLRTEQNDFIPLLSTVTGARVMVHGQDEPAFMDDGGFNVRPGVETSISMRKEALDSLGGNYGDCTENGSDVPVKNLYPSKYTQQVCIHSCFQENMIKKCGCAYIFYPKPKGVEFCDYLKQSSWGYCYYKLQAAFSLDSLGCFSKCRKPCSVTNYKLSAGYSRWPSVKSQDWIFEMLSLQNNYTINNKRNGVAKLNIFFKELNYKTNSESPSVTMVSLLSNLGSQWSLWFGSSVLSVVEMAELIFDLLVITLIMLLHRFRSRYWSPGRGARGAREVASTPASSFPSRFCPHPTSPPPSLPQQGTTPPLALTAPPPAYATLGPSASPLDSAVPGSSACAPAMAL
Sequence (Q9WU38 whole entry): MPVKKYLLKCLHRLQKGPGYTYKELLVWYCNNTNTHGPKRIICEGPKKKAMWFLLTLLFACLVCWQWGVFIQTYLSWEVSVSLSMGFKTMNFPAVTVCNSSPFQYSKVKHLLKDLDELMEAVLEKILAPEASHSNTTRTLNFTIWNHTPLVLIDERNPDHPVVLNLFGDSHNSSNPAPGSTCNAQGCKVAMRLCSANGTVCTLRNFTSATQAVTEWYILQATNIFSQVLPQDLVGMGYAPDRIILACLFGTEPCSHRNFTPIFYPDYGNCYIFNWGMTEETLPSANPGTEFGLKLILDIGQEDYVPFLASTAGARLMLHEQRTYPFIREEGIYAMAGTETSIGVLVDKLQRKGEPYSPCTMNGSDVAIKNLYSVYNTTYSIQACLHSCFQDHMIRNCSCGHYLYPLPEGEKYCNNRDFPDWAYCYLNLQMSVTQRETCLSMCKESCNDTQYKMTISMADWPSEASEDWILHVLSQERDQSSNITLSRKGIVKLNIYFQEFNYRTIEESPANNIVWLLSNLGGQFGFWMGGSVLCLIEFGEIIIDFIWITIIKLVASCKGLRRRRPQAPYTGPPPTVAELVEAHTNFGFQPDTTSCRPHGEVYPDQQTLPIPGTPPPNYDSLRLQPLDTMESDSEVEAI
Sequence (Q9WU39 whole entry): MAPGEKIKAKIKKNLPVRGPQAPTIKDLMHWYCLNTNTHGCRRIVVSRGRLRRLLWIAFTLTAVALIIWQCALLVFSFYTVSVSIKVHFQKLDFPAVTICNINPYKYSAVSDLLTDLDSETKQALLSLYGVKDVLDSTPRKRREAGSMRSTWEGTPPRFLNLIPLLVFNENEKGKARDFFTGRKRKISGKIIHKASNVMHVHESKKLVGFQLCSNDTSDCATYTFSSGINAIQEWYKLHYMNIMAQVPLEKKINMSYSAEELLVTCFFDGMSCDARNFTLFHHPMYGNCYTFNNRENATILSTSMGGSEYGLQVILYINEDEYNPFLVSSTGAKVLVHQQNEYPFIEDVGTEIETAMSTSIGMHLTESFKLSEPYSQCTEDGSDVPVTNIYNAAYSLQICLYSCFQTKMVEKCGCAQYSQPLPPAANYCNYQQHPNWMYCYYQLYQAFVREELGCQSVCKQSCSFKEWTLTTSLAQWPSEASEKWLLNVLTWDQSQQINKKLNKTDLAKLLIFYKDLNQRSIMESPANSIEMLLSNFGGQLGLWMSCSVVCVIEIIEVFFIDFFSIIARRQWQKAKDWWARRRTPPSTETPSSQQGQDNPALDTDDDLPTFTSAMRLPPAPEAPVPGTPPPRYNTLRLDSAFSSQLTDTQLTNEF
Test: Ussing chamber: inhibition of amiloride sensitive short circuit current (I_sc) in M-1 cells
Conditions: Mouse kidney M-1 cells on transwell filters, Ussing chamber at 37° C., compound added to the apical solution
Property: IC50; scope: individual compounds
I only need the number, in nM, no unit after it.

Example entries and their recorded answers appear below.
CN(C)CCN1CCC(CNC(N)=NC(=O)c2nc(Cl)c(N)nc2N)(Cc2ccccc2)CC1    91
N=C(N)NCCCCC(=O)N1CCC(CCc2ccccc2)(CNC(N)=NC(=O)c2nc(Cl)c(N)nc2N)CC1    18
COC(=O)CNC(=O)N1CCC(CCc2ccccc2)(CNC(N)=NC(=O)c2nc(Cl)c(N)nc2N)CC1    28
CN(C)CCCN1CCC(CCc2ccccc2)(CNC(N)=NC(=O)c2nc(Cl)c(N)nc2N)CC1    86
CC(C)NC(=O)N1CCC(CCc2ccccc2)(CNC(N)=NC(=O)c2nc(Cl)c(N)nc2N)CC1    8

## Task Need IC50, item `CN1CCC(CCc2ccccc2)(CNC(N)=NC(=O)c2nc(Cl)c(N)nc2N)CC1`
## Result 33

## Task Another: `COC(=O)c1ccc(CCC2(CNC(N)=NC(=O)c3nc(Cl)c(N)nc3N)CCNCC2)cc1`
## Result 394

## Task Another: `COC(=O)CN1CCC(CNC(N)=NC(=O)c2nc(Cl)c(N)nc2N)(Cc2ccccc2)CC1`
## Result 70

## Task Another: `CC(C)(C)OC(=O)N1CCC(CNC(N)=NC(=O)c2nc(Cl)c(N)nc2N)(c2ccccc2)CC1`
## Result 25

## Task Another: `CC(C)(C)OC(=O)NCC(=O)N1CCC(CNC(N)=NC(=O)c2nc(Cl)c(N)nc2N)(Cc2ccccc2)CC1`
## Result 27
